- tested-target: Aldo-keto reductase family 1 member B1 (Bos taurus) (UniProt P16116)
- assay: Inhibition of aldose reductase activity in partially purified bovine lens preparation at 10e-5 M
The source made the active and inactive calls. No cut-off for these calls is given here.
quantity: inhibition

CONC(=O)CC1C(=O)N(Cc2ccc(Br)cc2F)C(=O)c2ccccc21 (centres undefined) :: 45%
CN1C(=O)CC2(C1=O)C(=O)N(Cc1nc3cc(C(F)(F)F)ccc3s1)C(=O)c1ccccc12 (centres undefined) :: inactive
COC(=O)NC(=O)CC1C(=O)N(Cc2nc3cc(C(F)(F)F)ccc3s2)C(=O)c2ccc(F)cc21 (centres undefined) :: 83%
CC(C)=NN1C(=O)CC2(C(=O)N(Cc3nc4cc(C(F)(F)F)ccc4s3)C(=O)c3ccccc32)C1=O (centres undefined) :: inactive
CCCN1C(=O)CC2(C1=O)C(=O)N(Cc1ccc(Br)cc1F)C(=O)c1ccccc12 (centres undefined) :: inactive
CC(=O)NN1C(=O)CC2(C(=O)N(Cc3ccc(Br)cc3F)C(=O)c3ccccc32)C1=O (centres undefined) :: inactive
CON1C(=O)CC2(C(=O)N(Cc3ccc(Br)cc3F)C(=O)c3ccccc32)C1=O (centres undefined) :: inactive
CNC(=O)CC1C(=O)N(Cc2ccc(Br)cc2F)C(=O)c2ccccc21 (centres undefined) :: 62%

Now let's try a different one.
Ask: Find the measured inhibition of CCCCN1C(=O)CC2(C1=O)C(=O)N(Cc1ccc(Br)cc1F)C(=O)c1ccc(F)cc12 (centres undefined) and report it.
Reply: inactive

----------
- tested-target: Aldo-keto reductase family 1 member B1 (Bos taurus)
- assay: Inhibition of aldose reductase activity in partially purified bovine lens preparation at 10e-5 M
Activity calls are given as the source filed them. No cut-off for these calls is given here.
quantity: inhibition

COC(=O)NC(=O)CC1C(=O)N(C)C(=O)c2ccc(F)cc21 (stereo not given) :: 71%
O=C(O)CC1C(=O)N(Cc2ccc(C(F)(F)F)cc2)C(=O)c2ccccc21 (stereo not given) :: 43%
COC(=O)NC(=O)CC1C(=O)N(C)C(=O)c2cc(OC)ccc21 (stereo not given) :: 72%
O=C1CC2(C(=O)N1CC(F)(F)F)C(=O)N(Cc1ccc(Br)cc1F)C(=O)c1ccccc12 (stereo not given) :: inactive
CN1C(=O)CC2(C1=O)C(=O)N(Cc1ccc(Br)cc1F)C(=O)c1ccc(F)cc12 (stereo not given) :: inactive

Ask: Find the measured inhibition of NN1C(=O)CC2(C1=O)C(=O)N(Cc1ccc(Br)cc1F)C(=O)c1ccc(F)cc12 (stereo not given) and report it.
Reply: inactive

Ask: Find the measured inhibition of COC(=O)NC(=O)CC1C(=O)N(C)C(=O)c2cc(Cl)c(Cl)cc21 (stereo not given) and report it.
Reply: 90%

Ask: Find the measured inhibition of O=C(O)CN1C(=O)CC2(C1=O)C(=O)N(Cc1ccc(Br)cc1F)C(=O)c1ccc(F)cc12 (stereo not given) and report it.
Reply: 60%

Ask: Find the measured inhibition of NC(=O)CC1C(=O)N(Cc2ccc(Br)cc2F)C(=O)c2ccc(F)cc21 (stereo not given) and report it.
Reply: 88%

Ask: Find the measured inhibition of COC(=O)N(C(=O)OC)N1C(=O)CC2(C(=O)N(Cc3ccc(Br)cc3F)C(=O)c3ccccc32)C1=O (stereo not given) and report it.
Reply: inactive

----------
- tested-target: Aldo-keto reductase family 1 member B1 (Bos taurus) (UniProt P16116)
- assay: Inhibition of aldose reductase activity in partially purified bovine lens preparation at 10e-5 M
The source made the active and inactive calls. The calls are words filed in the database; no cut-off is given here.
quantity: inhibition

O=C1c2ccccc2C2(CC(=O)N(N=C3CCOCC3)C2=O)C(=O)N1Cc1nc2cc(C(F)(F)F)ccc2s1 (centres undefined) :: inactive
NN1C(=O)CC2(C1=O)C(=O)N(Cc1nc3cc(C(F)(F)F)ccc3s1)C(=O)c1ccccc12 (centres undefined) :: inactive
COC(=O)NC(=O)CC1C(=O)N(C)C(=O)c2ccc(Br)cc21 (centres undefined) :: 82%
CCN1C(=O)CC2(C1=O)C(=O)N(Cc1nc3cc(C(F)(F)F)ccc3s1)C(=O)c1ccc(F)cc12 (centres undefined) :: inactive
NC(=O)CC1C(=O)N(Cc2ccc(Br)cc2F)C(=O)c2cc(F)ccc21 (centres undefined) :: inactive
CCCN1C(=O)c2ccccc2C(CC(=O)NC(=O)OC)C1=O (centres undefined) :: inactive
NN1C(=O)CC2(C1=O)C(=O)N(Cc1ccc(Br)cc1F)C(=O)c1ccccc12 (centres undefined) :: inactive
COC(=O)NC(=O)CC1C(=O)N(C)C(=O)c2cc(Br)c(OC)cc21 (centres undefined) :: 29%

Ask: # lookup: Aldo-keto reductase family 1 member B1 (Bos taurus) (UniProt P16116) inhibition, key = COC(=O)NC(=O)CC1C(=O)N(C)C(=O)c2ccc([N+](=O)[O-])cc21 (centres undefined)
Reply: 67%

Ask: # lookup: Aldo-keto reductase family 1 member B1 (Bos taurus) (UniProt P16116) inhibition, key = CCCCN1C(=O)CC2(C1=O)C(=O)N(Cc1ccc(Br)cc1F)C(=O)c1ccccc12 (centres undefined)
Reply: inactive

----------
- tested-target: Aldo-keto reductase family 1 member B1 (Bos taurus) (UniProt P16116)
- assay: Inhibition of aldose reductase activity in partially purified bovine lens preparation at 10e-5 M
Active and inactive are the calls of the source. The rule behind the calls is not given here.
quantity: inhibition

Use the examples below as a reference point.
CCOC(=O)NC(=O)CC1C(=O)N(C)C(=O)c2ccc(Cl)cc21 (centres undefined) :: inactive
CCCCN1C(=O)c2ccccc2C(CC(=O)NC(=O)OC)C1=O (centres undefined) :: inactive
NN1C(=O)CC2(C1=O)C(=O)N(Cc1nc3cc(C(F)(F)F)ccc3s1)C(=O)c1ccc(F)cc12 (centres undefined) :: inactive
O=C1c2ccccc2C2(CC(=O)N(NS(=O)(=O)C(F)(F)F)C2=O)C(=O)N1Cc1ccc(Br)cc1F (centres undefined) :: inactive
COC(=O)NC(=O)CC1C(=O)N(C)C(=O)c2ccc(Cl)cc21 (centres undefined) :: 65%

Now let's try a different one.
Ask: Find the measured inhibition of CCN1C(=O)CC2(C1=O)C(=O)N(Cc1ccc(Br)cc1F)C(=O)c1ccccc12 (centres undefined) and report it.
Reply: inactive

----------
- tested-target: Aldo-keto reductase family 1 member B1 (Bos taurus) (UniProt P16116)
- assay: Inhibition of aldose reductase activity in partially purified bovine lens preparation at 10e-5 M
Active and inactive are the calls of the source. The rule behind the calls is not given here.
quantity: inhibition

Use the examples below as a reference point.
COC(=O)NC(=O)CC1C(=O)N(Cc2nc3cc(C(F)(F)F)ccc3s2)C(=O)c2ccccc21 (stereo not drawn) :: 95%
CC1(CC(=O)O)C(=O)N(Cc2ccc(Cl)c(Cl)c2)C(=O)c2ccccc21 (stereo not drawn) :: 45%
CCC(CC)=NN1C(=O)CC2(C(=O)N(Cc3ccc(Br)cc3F)C(=O)c3ccccc32)C1=O (stereo not drawn) :: inactive
NC(=O)CC1C(=O)N(Cc2ccc(Br)cc2F)C(=O)c2ccccc21 (stereo not drawn) :: inactive
CN1NC(=O)C2(CC1=O)C(=O)N(Cc1ccc(Br)cc1F)C(=O)c1ccccc12 (stereo not drawn) :: inactive

Now let's try a different one.
Ask: Find the measured inhibition of CN1C(=O)CC2(C(=O)N(Cc3ccc(Br)cc3F)C(=O)c3ccccc32)C(=O)N1C (stereo not drawn) and report it.
Reply: inactive

----------
- tested-target: Aldo-keto reductase family 1 member B1 (Bos taurus)
- assay: Inhibition of aldose reductase activity in partially purified bovine lens preparation at 10e-5 M
Calls of active or inactive are those of the source. The rule behind the calls is not given here.
quantity: inhibition

Use the examples below as a reference point.
CN1C(=O)c2ccccc2C(CC(=O)O)C1=O (configuration not stated) :: 70%
COC(=O)NC(=O)CC1C(=O)N(C)C(=O)c2ccc(C(F)(F)F)cc21 (configuration not stated) :: 51%
O=C1c2ccccc2C2(CC(=O)N(N=C3CCCC3)C2=O)C(=O)N1Cc1ccc(Br)cc1F (configuration not stated) :: inactive
CN1C(=O)CC2(C1=O)C(=O)N(C)C(=O)c1ccc(Cl)cc12 (configuration not stated) :: inactive
COC(=O)NC(=O)CC1C(=O)N(Cc2ccc(Br)cc2F)C(=O)c2ccc(F)cc21 (configuration not stated) :: 55%

Ask: Find the measured inhibition of CCNC(=O)CC1C(=O)N(Cc2ccc(Br)cc2F)C(=O)c2ccc(F)cc21 (configuration not stated) and report it.
Reply: 80%

Ask: Find the measured inhibition of CN1C(=O)CC2(C1=O)C(=O)N(Cc1ccc(Br)cc1F)C(=O)c1ccccc12 (configuration not stated) and report it.
Reply: inactive

Ask: Find the measured inhibition of CC(C)=NN1C(=O)CC2(C(=O)N(Cc3ccc(Br)cc3F)C(=O)c3ccc(F)cc32)C1=O (configuration not stated) and report it.
Reply: inactive

Ask: Find the measured inhibition of CN1C(=O)c2ccc(Cl)cc2C(CC(N)=O)C1=O (configuration not stated) and report it.
Reply: inactive

Ask: Find the measured inhibition of COC(=O)NC(=O)CC1C(=O)N(Cc2ccc(Br)cc2F)C(=O)c2ccccc21 (configuration not stated) and report it.
Reply: 84%

Ask: Find the measured inhibition of CCNC(=O)CC1C(=O)N(Cc2ccc(Br)cc2F)C(=O)c2ccccc21 (configuration not stated) and report it.
Reply: inactive

Ask: Find the measured inhibition of COC(=O)NC(=O)CC1C(=O)N(C)C(=O)c2ccccc21 (configuration not stated) and report it.
Reply: 61%

Ask: Find the measured inhibition of CC(C)=NN1C(=O)CC2(C(=O)N(Cc3ccc(Br)cc3F)C(=O)c3ccccc32)C1=O (configuration not stated) and report it.
Reply: inactive

Where do these numbers come from? They come from ChEMBL document CHEMBL1127562.
